- assayed_target: T1, human GCC, full length with myc tag (293-GCC#2 cells) (human, UniProt P25092 24-1073)
- T1 construct: not shown: myc tag
- T1 sequence (P25092 24-1073): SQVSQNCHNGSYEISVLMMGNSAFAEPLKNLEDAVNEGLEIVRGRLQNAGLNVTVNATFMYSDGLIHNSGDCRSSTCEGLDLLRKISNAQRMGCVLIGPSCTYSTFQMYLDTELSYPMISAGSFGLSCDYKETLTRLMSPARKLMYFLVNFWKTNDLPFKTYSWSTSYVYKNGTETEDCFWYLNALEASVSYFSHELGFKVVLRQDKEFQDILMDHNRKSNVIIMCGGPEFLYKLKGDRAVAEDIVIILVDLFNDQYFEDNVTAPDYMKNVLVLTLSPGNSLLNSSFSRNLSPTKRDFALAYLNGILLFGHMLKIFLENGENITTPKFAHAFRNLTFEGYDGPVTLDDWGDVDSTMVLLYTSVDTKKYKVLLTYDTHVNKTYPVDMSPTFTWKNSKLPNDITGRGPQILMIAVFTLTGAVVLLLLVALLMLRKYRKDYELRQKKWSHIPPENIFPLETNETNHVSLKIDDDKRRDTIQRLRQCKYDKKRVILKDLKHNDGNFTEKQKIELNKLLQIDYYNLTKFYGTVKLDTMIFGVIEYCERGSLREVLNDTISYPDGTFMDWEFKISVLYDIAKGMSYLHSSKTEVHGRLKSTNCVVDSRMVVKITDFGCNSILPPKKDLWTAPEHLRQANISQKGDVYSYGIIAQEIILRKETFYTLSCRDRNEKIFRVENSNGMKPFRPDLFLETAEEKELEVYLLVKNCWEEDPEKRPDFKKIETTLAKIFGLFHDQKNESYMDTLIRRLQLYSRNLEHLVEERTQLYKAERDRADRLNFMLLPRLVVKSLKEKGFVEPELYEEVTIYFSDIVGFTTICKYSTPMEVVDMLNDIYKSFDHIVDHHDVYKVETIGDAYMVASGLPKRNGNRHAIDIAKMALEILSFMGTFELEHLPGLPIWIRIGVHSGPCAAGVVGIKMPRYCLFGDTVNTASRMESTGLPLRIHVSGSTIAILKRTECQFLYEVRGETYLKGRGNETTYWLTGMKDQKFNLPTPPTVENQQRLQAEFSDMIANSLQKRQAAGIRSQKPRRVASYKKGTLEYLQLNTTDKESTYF
- experimental_details: indirect immunofluorescence flow cytometry, 293 GCC #2 cells;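 further: cells exposed to the test antibodies for 1 h on ice before flow cytometric readout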
For each record, write down the corresponding MFI at 0.004 µg/ml.
Answers are plain numbers.

>  <binder>
5F9-vc-MMAE (antibody, V domains shown, mc-vc-MMAE drug-linker on reduced interchain cysteines of the antibody; positions not given, Antibody drug conjugate of 5F9) VH: QVQLQQWGAGLLKPSETLSLTCAVFGGSFSGYYWSWIRQPPGKGLEWIGEINHRGNTNDNPSLKSRVTISVDTSKNQFALKLSSVTAADTAVYYCARERGYTYGNFDHWGQGTLVTVSS VL: EIVMTQSPATLSVSPGERATLSCRASQSVSRNLAWYQQKPGQAPRLLIYGASTRATGIPARFSGSGSGTEFTLTIGSLQSEDFAVYYCQQYKTWPRTFGQGTNVEIK

>  <reported>
696

$$$$
>  <binder>
5F9-mc-MMAF (antibody, V domains shown, mc-MMAF drug-linker on reduced interchain cysteines of the antibody; positions not given, Antibody drug conjugate of 5F9; average loading about four) VH: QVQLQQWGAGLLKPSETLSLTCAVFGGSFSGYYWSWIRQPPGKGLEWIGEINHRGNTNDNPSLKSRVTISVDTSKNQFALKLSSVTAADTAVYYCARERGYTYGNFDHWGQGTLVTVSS VL: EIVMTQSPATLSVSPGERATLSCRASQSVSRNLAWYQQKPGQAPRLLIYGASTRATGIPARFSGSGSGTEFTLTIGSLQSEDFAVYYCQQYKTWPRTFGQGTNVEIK

>  <reported>
776

$$$$
>  <binder>
5F9-vc-MMAF (antibody, V domains shown, mc-vc-MMAF drug-linker on reduced interchain cysteines of the antibody; positions not given, Antibody drug conjugate of 5F9; average loading about four) VH: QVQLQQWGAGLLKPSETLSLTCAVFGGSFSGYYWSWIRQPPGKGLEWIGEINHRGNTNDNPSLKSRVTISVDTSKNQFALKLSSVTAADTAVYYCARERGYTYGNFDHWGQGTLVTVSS VL: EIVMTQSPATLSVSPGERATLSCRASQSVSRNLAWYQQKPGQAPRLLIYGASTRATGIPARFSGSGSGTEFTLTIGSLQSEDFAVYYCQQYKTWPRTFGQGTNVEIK

>  <reported>
707

$$$$

Data request: Return reported MFI at 0.004 µg/ml. Input binder: mAb 5F9 (antibody, V domains shown, Human; hybridoma product is IgG2, kappa; also called 46.5F9.8.2; Prep A 5F9) VH: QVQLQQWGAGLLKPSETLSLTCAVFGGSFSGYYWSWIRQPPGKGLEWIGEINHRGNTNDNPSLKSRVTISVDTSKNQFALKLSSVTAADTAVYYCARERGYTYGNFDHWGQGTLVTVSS VL: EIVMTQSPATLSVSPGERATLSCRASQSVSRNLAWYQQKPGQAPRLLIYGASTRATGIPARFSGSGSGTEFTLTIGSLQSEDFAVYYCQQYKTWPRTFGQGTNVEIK
Data returned: 937
